molecular target: human MET kinase Y1230S (Homo sapiens, UniProt P08581, Y1230S); construct: GST-tagged recombinant human MET kinase domain; assay: c-Met Enzyme Assay, Y1230S mutant; conditions: averaged IC50; Y1230S 8 nM; 60-minute incubation at 22° C.; read-out: Y1230 S IC50
Sequence (P08581 1078-1345 Y1230S): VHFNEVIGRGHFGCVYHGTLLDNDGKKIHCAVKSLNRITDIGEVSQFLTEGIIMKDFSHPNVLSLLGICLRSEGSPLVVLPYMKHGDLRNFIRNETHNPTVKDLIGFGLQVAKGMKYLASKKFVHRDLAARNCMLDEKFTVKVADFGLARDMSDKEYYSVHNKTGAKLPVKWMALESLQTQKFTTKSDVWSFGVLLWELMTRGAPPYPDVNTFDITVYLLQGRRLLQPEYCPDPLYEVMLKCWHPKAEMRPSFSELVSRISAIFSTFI
METRIC: IC50 (nM)

                                 smiles_str  metric  readout_units  readout_number
0  COc1cc2nccc(Oc3ccc(NC(=O)c4cn(CCN(C)C)cc(-c5ccc(F)cc5F)c4=O)nc3)c2cc1OC    IC50             nM             2.1

a: COc1cc2nccc(Oc3ccc(NC(=O)c4cn(CC(C)(C)O)cc(-c5ccc(F)cc5)c4=O)nc3)c2cc1OC
b: COc1cc2nc(C)cc(Oc3ccc(NC(=O)c4cn(C(C)C)cc(-c5ccc(F)cc5)c4=O)nc3)c2cc1OC
c: COc1cc2nccc(Oc3ccc(NC(=O)c4cn(C(C)C)cc(-c5ccc(F)c(Cl)c5)c4=O)nc3)c2cc1OC
d: COc1cc2nccc(Oc3ccc(NC(=O)c4cn(C(C)C)cc(-c5ccc(F)cc5F)c4=O)nc3)c2cc1OC
[ask] Please order the records by their reported IC50, lowest number first. Form entry: labels listed in requested order.
[reply] d, a, c, b
(d: 2.2 nM, a: 9.1 nM, c: 29.2 nM, b: 3710 nM)

P: COc1cc2nccc(Oc3cnc(NC(=O)c4cn(C(C)C)cc(-c5ccc(F)cc5)c4=O)nc3)c2cc1OC
Q: COc1ccc2nccc(Oc3ccc(NC(=O)c4cn(C(C)C)c(C)c(-c5ccc(F)cc5)c4=O)nc3)c2c1
[ask] Problem: Given the entries P and Q , determine which has the lower reported IC50. Mark your answer with the label of the selected entry.
[reply] P
(P: 3.2 nM, Q: 5 nM)

* * *

biological target: human MET kinase D1228N (Homo sapiens, UniProt P08581, D1228N); construct: GST-tagged recombinant human MET kinase domain; experiment: c-Met Enzyme Assay, D1228N mutant; conditions: averaged IC50; D1228N 2 nM; 60-minute incubation at 22° C.; read-out: D1228 N IC50
Sequence (P08581 1078-1345 D1228N): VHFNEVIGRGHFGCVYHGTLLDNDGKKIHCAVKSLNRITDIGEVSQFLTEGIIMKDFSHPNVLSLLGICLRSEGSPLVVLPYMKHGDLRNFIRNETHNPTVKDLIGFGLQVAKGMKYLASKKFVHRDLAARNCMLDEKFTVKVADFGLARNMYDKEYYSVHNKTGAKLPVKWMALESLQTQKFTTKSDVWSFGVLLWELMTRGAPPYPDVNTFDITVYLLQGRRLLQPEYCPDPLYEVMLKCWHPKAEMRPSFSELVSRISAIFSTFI
pIC50: −log10 of the molar value.
METRIC: pIC50

Reference set (6 entries):
>>> df
                                   compound  readout_number
0  COc1cc2nccc(Oc3ccc(NC(=O)c4cn(C(C)C)cc(-c5ccc(Cl)cc5)c4=O)nc3)c2cc1OC [Example 5]            7.79
1  COc1cc2nccc(Oc3ccc(NC(=O)c4cn(CCN(C)C)cc(-c5ccc(Cl)cc5)c4=O)nc3)c2cc1OC [Example 42]            8.15
2  CNC(=O)Cn1cc(C(=O)Nc2ccc(Oc3ccnc4cc(OC)c(OC)cc34)cn2)c(=O)c(-c2ccc(F)cc2)c1 [Example 22]            8.19
3  COc1cc2nccc(Oc3ccc(NC(=O)c4cn(CCN(C)C)cc(-c5ccc(F)cc5)c4=O)nc3)c2cc1OC [Example 46]            8.27
4  COc1cc2nccc(Oc3ccc(NC(=O)c4cn(CCC(C)C)cc(-c5ccc(F)c(F)c5)c4=O)nc3)c2cc1OC [Example 35]            7.79
5  COc1cc2nccc(Oc3ccc(NC(=O)c4cn(CC(C)(C)O)cc(-c5ccc(F)cc5)c4=O)nc3)c2cc1OC [Example 9]            7.80

1: COc1cc2nccc(Oc3ccc(NC(=O)c4cn(CCC(C)C)cc(-c5ccc(F)cc5F)c4=O)nc3)c2cc1OC [Example 36]
2: COc1cc2c(Oc3ccc(NC(=O)c4cn(C(C)C)c(C)c(-c5ccc(F)cc5)c4=O)nc3)ccnc2cc1F [Example 48]
3: COc1ccc2nccc(Oc3ccc(NC(=O)c4cn(CCN(C)C)cc(-c5ccc(F)cc5)c4=O)nc3)c2c1 [Example 47]
4: COc1cc2ncc(C#N)c(Oc3ccc(NC(=O)c4cn(C(C)C)cc(-c5ccc(F)cc5)c4=O)nc3)c2cc1OC [Example 57]
5: COc1cc2nccc(Oc3ccc(NC(=O)c4cn(C(C)C)c(C)c(-c5ccc(F)cc5)c4=O)nc3)c2cc1OC [Example 27]
[ask] Sort the compounds on pIC50; start with the lowest figure. A complete answer lists every label in the requested sequence.
[reply] 4, 3, 2, 1, 5
(4: 5.98, 3: 7.53, 2: 7.84, 1: 8.32, 5: 8.70)

FYI, the data here is from patent US20200216416A1.
